Measured IC50 accompanies every entry in the list below.
# Subject of test: T. brucei ODC (Trypanosoma brucei brucei)
# Sequence (P07805 whole entry): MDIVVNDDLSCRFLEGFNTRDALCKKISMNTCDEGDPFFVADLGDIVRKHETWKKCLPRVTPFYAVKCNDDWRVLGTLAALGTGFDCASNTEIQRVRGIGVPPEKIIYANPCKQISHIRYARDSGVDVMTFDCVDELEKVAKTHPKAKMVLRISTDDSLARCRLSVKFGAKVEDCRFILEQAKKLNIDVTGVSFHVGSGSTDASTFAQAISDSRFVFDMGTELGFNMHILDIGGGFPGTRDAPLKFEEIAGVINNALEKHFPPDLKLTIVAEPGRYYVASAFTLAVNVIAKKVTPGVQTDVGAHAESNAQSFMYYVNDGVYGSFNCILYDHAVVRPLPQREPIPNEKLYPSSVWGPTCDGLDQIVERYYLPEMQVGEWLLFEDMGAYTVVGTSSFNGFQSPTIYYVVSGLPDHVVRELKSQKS
Readout label: IC50 (nM)

Compound | Subject of test | Readout label | Experimental result
NCC(O)CON (centres unmarked) [Compound 7, 2-hydroxy APA] | T. brucei ODC (Trypanosoma brucei brucei) | IC50 | 48
Cl.NCCCON [Compound 3, 3-(aminooxy)propanamine, reference compound] | T. brucei ODC (Trypanosoma brucei brucei) | IC50 | 22

Where do the numbers come from? From paper PMC2935964.
